B1: VH:VL chains; a variant is named by its letters at X, in order (parent)
chain 1: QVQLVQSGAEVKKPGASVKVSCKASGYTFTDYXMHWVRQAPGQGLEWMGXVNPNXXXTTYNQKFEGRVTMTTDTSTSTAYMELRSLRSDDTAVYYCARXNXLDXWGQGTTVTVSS
chain 2: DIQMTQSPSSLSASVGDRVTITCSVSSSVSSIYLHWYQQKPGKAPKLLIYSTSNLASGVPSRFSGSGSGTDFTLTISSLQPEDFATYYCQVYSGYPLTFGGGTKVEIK

variants of: B1; assay: yeast display scFab, FACS + sequencing
quantity measured: non-specific binding call

Take a look at these entries with their results.
YAKRGSWA | binds
VEAGDSSS | no binding
YRTKGAVY | binds
SEEEGDWV | no binding
DGGRAFWF | binds
AKTRDDVA | no binding

Which non-specific binding call is reported for this variant? VETEGDAV
no binding

May I ask what non-specific binding call has been recorded for YKGGSFGV ?
binds

Fill blank: measured non-specific binding call of the variant DGARNFGV is ____.
no binding

What does the data say about its non-specific binding call? Entry: AARADFGV
no binding

// query non-specific binding call value for entry YRTRGSGF
binds

Fill in the blank: the reported non-specific binding call of SEEEGASV is ____.
no binding

Return reported non-specific binding call; argument: VRAGDAGV
no binding

// non-specific binding call lookup, key: FKEGNSLD
no binding
